Sequence of the target: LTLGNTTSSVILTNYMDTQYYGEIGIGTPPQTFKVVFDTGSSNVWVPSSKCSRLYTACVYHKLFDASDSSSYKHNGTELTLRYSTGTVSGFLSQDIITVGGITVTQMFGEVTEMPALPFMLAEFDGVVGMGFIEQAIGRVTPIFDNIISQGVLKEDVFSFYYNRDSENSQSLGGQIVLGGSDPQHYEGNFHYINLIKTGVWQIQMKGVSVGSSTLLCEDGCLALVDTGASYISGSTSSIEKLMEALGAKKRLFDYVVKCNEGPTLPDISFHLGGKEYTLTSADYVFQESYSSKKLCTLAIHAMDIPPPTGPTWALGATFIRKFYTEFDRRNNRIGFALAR
# if measured IC50 < 0.008 nM: MET  # else: NOT MET

{"molecule": "CC(C)C[C@H](N=[N+]=[N-])[C@H](O)[C@H](CC(C)C)NC(=O)[C@H](Cc1c[nH]cn1)NC(=O)[C@H](Cc1ccccc1)OC(=O)N1CCOCC1", "classification": "NOT MET"}
{"molecule": "CC(C)C[C@H](N=[N+]=[N-])[C@H](O)[C@H](CC1CCCCC1)NC(=O)[C@H](Cc1c[nH]cn1)NC(=O)[C@H](Cc1ccccc1)CS(=O)(=O)C(C)(C)C", "classification": "MET"}
{"molecule": "CC(C)CC(N=[N+]=[N-])C(O)[C@H](CC(C)C)NC(=O)[C@H](Cc1c[nH]cn1)NC(=O)[C@H](Cc1cccc2ccccc12)NC(=O)OCc1ccccc1 (stereo partly drawn)", "classification": "NOT MET"}
{"molecule": "CC(C)CC(N=[N+]=[N-])C(=O)C(CC1CCCCC1)NC(=O)[C@H](Cc1c[nH]cn1)NC(=O)[C@H](Cc1ccccc1)OC(=O)N1CCOCC1 (stereo partly drawn)", "classification": "NOT MET"}
{"molecule": "CC(C)C[C@H](N=[N+]=[N-])[C@H](O)[C@H](CC1CCCCC1)NC(=O)[C@H](Cc1c[nH]cn1)NC(=O)C(CC(=O)N1CCOCC1)Cc1ccccc1 (stereo partly drawn)", "classification": "NOT MET"}
